test: chemical genetic growth profiling, strain panel (AID 1159580);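 also: tested at 20 µM; growth read once vehicle control cultures reached saturation at 30 °C; 1 = growth at the plate median or of vehicle wells; lower values mean less growth of the strain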
particulars: S. cerevisiae deletion strains, growth OD, locus YGL253W, strain hxk2, hits give low values
Among all 5,500 compounds or so, about 2,000 (36%) were called active. Not shown: some 18% with an inconclusive outcome. This is one part of the list.
readout.label: normalized growth

- molecule: "O=C(O)[C@H]1/C(=C/CO)O[C@@H]2CC(=O)N21"
  recorded.value: "0.959 (inactive)"

Field: next molecule
Would you mind telling me what normalized growth value was observed for CC(=CC1CCC(C)C2CCC(C)=C12)C(=O)O (stereo unspecified) ?
0.937 (inactive)

* * *

test: chemical genetic growth profiling, strain panel (AID 1159580);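 also: tested at 20 µM; growth read once vehicle control cultures reached saturation at 30 °C; 1 = growth at the plate median or of vehicle wells; lower values mean less growth of the strain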
particulars: S. cerevisiae deletion strains, growth OD, locus YHR027C, strain rpn1
Screen size: about 5,500 compounds; about 2,000 (36%) were called active. Another 18% or so got no clear call; they are omitted. No stated cut-off is given here; in the data, active means normalized growth mostly below about 0.91 (no sharp cut-off); inconclusive means no clear call, values can overlap the other calls; inactive means mostly above about 0.92. The list shows a part of the results.
Hello, when you answer, please use one of the following outcomes: yes (1) for active, no (0) for inactive

Record excerpt, results attached:
- molecule: "O=C(/C=C/c1ccccc1)c1ccc(O[C@@H]2O[C@H](CO)[C@@H](O)[C@H](O)[C@H]2O)cc1O"
  assigned.class: "no (0)"
- molecule: "O=C(/C=C/c1ccccc1)c1ccc(O)cc1O"
  assigned.class: "yes (1)"
- molecule: "O=C(/C=C/c1ccc(O)cc1)c1ccc(O)cc1O"
  assigned.class: "no (0)"
- molecule: "CCC1(C2=NCCN2)Cc2ccccc2O1 (stereo unspecified)"
  assigned.class: "no (0)"
- molecule: "O=C(CCc1ccc(O)cc1)c1c(O)cc(O)cc1O"
  assigned.class: "no (0)"

# evaluate next
Hello, I am checking results. What call was entered for O=C(/C=C/c1ccc(O)cc1)c1ccccc1O ?
yes (1)
